Target: 2-amino-4-hydroxy-6-hydroxymethyldihydropteridin e pyrophosphokinase (Staphylococcus aureus)
Assay: Inhibition of Staphylococcus aureus HPPK after 20 mins by luciferase reporter gene assay
readout: IC50
# number then unit; no other words

Input line: What IC50 value was documented for this compound, Nc1nc2[nH]c(SCc3ccccc3F)nc2c(=O)[nH]1 ?
Output line: 24.9 µM

Input line: What IC50 value was documented for this compound, Nc1nc2[nH]c(S)nc2c(=O)[nH]1 ?
Output line: 41 µM

====

Molecular target: 2-amino-4-hydroxy-6-hydroxymethyldihydropteridin e pyrophosphokinase (Staphylococcus aureus, UniProt X5EH84)
Sequence (X5EH84 whole entry): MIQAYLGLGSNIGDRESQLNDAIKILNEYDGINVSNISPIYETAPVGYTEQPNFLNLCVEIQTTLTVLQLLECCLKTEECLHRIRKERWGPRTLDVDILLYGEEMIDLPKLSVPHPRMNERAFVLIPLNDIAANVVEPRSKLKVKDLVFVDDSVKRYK
Test: Binding affinity to Staphylococcus aureus recombinant HPPK by surface plasmon resonance analysis
Would you mind telling me the reported Kd of each entry?
Report as a plain number; the unit µM is understood.

Input line: What Kd value was documented for this compound, Nc1nc2[nH]c(SCc3ccccc3C(F)(F)F)nc2c(=O)[nH]1 ?
Output line: 7.26

Input line: What Kd value was documented for this compound, Nc1nc2[nH]c(SCc3ccccc3F)nc2c(=O)[nH]1 ?
Output line: 4.3

Input line: What Kd value was documented for this compound, COc1ccc(CCSc2nc3c(=O)[nH]c(N)nc3[nH]2)cc1 ?
Output line: 73.5

Input line: What Kd value was documented for this compound, Nc1nc2nc(SCC(=O)c3ccccc3)[nH]c2c(=O)[nH]1 ?
Output line: 10.3

Input line: What Kd value was documented for this compound, Nc1nc2[nH]c(SCC(=O)c3ccc(-c4ccccc4)cc3)nc2c(=O)[nH]1 ?
Output line: 21.5

Input line: What Kd value was documented for this compound, Nc1nc2[nH]c(S)nc2c(=O)[nH]1 ?
Output line: 10.8
